SYSTEM_UNDER_TEST: ΔF508 CFTR (Homo sapiens, UniProt P13569, DEL508-508)
Construct: expressed in transfected cells
Sequence (P13569 with tags, fused parts or gaps DEL508-508): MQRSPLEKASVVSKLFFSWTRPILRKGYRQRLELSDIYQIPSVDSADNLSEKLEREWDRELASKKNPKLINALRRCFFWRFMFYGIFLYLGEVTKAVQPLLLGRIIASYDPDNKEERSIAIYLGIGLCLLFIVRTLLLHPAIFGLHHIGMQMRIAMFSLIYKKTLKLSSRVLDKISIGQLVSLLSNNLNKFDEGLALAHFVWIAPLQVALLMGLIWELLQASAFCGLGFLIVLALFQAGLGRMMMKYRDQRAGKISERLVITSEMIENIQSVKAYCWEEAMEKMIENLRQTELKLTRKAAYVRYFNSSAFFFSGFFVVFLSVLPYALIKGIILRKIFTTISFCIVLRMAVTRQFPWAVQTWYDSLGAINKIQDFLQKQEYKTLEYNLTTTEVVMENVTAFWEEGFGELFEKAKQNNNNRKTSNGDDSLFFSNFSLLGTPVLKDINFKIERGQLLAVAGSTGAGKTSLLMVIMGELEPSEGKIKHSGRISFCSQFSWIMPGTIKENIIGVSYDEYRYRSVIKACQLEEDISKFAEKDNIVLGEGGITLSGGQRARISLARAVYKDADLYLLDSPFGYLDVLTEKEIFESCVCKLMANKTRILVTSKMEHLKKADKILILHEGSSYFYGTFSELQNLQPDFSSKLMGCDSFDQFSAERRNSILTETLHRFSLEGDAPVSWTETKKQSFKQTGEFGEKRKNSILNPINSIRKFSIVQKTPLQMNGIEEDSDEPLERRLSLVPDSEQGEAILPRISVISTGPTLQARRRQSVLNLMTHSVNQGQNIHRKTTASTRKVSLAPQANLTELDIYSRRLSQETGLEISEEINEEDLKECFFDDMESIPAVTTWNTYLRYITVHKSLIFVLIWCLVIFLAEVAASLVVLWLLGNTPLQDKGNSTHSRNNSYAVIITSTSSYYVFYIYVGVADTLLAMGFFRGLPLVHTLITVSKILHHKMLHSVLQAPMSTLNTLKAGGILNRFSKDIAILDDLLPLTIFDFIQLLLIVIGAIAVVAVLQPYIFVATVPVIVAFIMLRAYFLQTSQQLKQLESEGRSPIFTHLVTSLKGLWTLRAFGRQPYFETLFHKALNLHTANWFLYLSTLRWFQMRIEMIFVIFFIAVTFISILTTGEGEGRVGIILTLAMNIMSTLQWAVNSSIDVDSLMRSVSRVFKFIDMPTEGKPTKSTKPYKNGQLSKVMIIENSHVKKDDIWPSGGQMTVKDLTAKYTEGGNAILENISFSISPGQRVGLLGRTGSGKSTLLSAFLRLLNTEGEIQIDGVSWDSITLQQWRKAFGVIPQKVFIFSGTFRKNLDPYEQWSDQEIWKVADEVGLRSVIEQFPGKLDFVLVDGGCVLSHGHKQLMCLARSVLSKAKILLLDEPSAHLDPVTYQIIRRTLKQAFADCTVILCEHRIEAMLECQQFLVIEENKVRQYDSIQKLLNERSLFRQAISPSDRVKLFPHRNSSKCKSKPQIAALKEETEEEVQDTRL
TEST_PROTOCOL: MQAE chloride transport assay in C127 cells expressing ΔF508 CFTR
Format: cell-based, murine
TEST_CONTEXT: C127, plateau level in activity at high compound concentration, as a percentage of the low temperature response; read-out: % of Maximal Response
MEASURED_ENDPOINT: Emax (%)

>>> measured("COc1ccc(NC(=O)[C@@H]2Cc3ccccc3CN2C(=O)c2cc(OC3CCCCC3)ccn2)cn1")
64
>>> measured("CCCCCc1ccc(NC(=O)[C@@H]2Cc3ccccc3CN2C(=O)c2cccc(OC(C)(C)C)c2)cc1")
83
>>> measured("CCCCCc1ccc(NC(=O)[C@@H]2Cc3ccccc3CN2C(=O)c2cc(Oc3ccccc3)ccn2)cc1")
79

----------
SYSTEM_UNDER_TEST: ΔF508 CFTR (Homo sapiens, UniProt P13569, DEL508-508)
TEST_PROTOCOL: MQAE chloride transport assay in C127 cells expressing ΔF508 CFTR
TEST_CONTEXT: chloride transport activity, C127 ΔF508 CFTR cells, MQAE
pEC50: −log10 of the molar value.
MEASURED_ENDPOINT: pEC50

# annotated cases, reported pEC50 shown
>>> measured("CCCCCc1ccc(NC(=O)[C@@H]2Cc3ccccc3CN2C(=O)c2cccc(OC(C)(C)C)c2)cc1 [Compound 122]")
8.00
>>> measured("CCCCCc1ccc(NC(=O)[C@@H]2Cc3ccccc3CN2C(=O)c2ccc(OC)c(OC)c2)cc1 [Compound 127]")
6.74
>>> measured("CC(C)c1ccc(NC(=O)C2Cc3ccccc3CN2C(=O)c2cccc(Oc3ccccc3)c2)cc1 (racemic) [Compound 78]")
6.60
>>> measured("CCCCCc1ccc(NC(=O)[C@@H]2Cc3ccccc3CN2C(=O)c2ccc(OC)c(OCc3ccccc3)c2)cc1 [Compound 116]")
7.74
>>> measured("CCC(C)c1ccc(NC(=O)C2Cc3ccccc3CN2C(=O)c2cccc(Oc3ccccc3)c2)cc1 (racemic) [Compound 77]")
6.46
>>> measured("O=C(Nc1ccc(C2CCCCC2)cc1)C1Cc2ccccc2CN1C(=O)c1cccc(Oc2ccccc2)c1 (racemic) [Compound 76]")
6.40
>>> measured("COc1ccc(NC(=O)C2Cc3ccccc3CN2C(=O)c2cccc(Oc3ccccc3)c2)cn1 (racemic) [Compound 99]")
6.57
>>> measured("CCCCCc1ccc(NC(=O)[C@@H]2Cc3ccccc3CN2C(=O)c2cccc(Oc3ccc(OCC)c(Oc4ccccc4)c3)c2)cc1 [Compound 121]")
8.20
>>> measured("COc1ccccc1Oc1cccc(C(=O)N2Cc3ccccc3CC2C(=O)Nc2ccc(Cl)cc2)c1 (racemic) [Compound 11]")
6.59
>>> measured("O=C(Nc1nccs1)C1Cc2ccccc2CN1C(=O)c1cccc(Oc2ccccc2)c1 (racemic) [Compound 100]")
6.37

(A) Cc1ccc(Oc2cccc(C(=O)N3Cc4ccccc4CC3C(=O)Nc3ccc(Cl)cc3)c2)cc1 (racemic) [Compound 7]
(B) CCCCCc1ccc(NC(=O)[C@@H]2Cc3ccccc3CN2C(=O)c2cc(OC(C)C)c(OC)cn2)cc1 [Compound 145]
(C) O=C(Nc1ccc(F)cc1)[C@@H]1Cc2ccccc2CN1C(=O)c1cc(OC2CCCCC2)ccn1 [Compound 109]
Task item: Which order do these items take when sorted by rising pEC50? List them. // format: requested-order list of labels
Reply: A, C, B
(A: 6.60, C: 7.02, B: 7.60)

(1) CCCCCc1ccc(NC(=O)[C@@H]2Cc3ccccc3CN2C(=O)c2ccc3c(c2)OCCO3)cc1 [Compound 135]
(2) CCCCCc1ccc(NC(=O)C2Cc3ccccc3CN2C(=O)c2cccc(OC(C)CC)c2)cc1 (stereo not drawn) [Compound 140]
(3) CCCCCc1ccc(NC(=O)[C@@H]2Cc3ccccc3CN2C(=O)c2cc(Oc3cccnc3)ccn2)cc1 [Compound 147]
(4) CCOc1cccc(NC(=O)[C@@H]2Cc3ccccc3CN2C(=O)c2cc(OC3CCCCC3)ccn2)c1 [Compound 111]
(5) COc1ccc(C(=O)N2Cc3ccccc3CC2C(=O)Nc2ccc(Cl)cc2)cc1Oc1ccccc1 (racemic) [Compound 17]
Task item: Put the items in sequence by pEC50, from largest down. The reply should contain the labels ordered as requested.
Reply: 2, 3, 5, 4, 1

(A) CCCCCc1ccc(NC(=O)[C@@H]2Cc3ccccc3CN2C(=O)c2ccc(C)c(OC(C)C)c2)cc1 [Compound 143]
(B) CC(=O)N(C)c1ccc(NC(=O)[C@@H]2Cc3ccccc3CN2C(=O)c2cccc(Oc3ccccc3)c2)cc1 [Compound 86]
(C) CCCCCc1ccc(NC(=O)[C@@H]2Cc3ccccc3CN2C(=O)c2cc(Cl)cc(Cl)c2)cc1 [Compound 133]
Task item: Hello, I need these entries ordered by pEC50, highest reading first. Thanks! # respond with the labels, arranged in the requested order
Reply: A, C, B
(A: 8.23, C: 7.85, B: 7.18)

----------
SYSTEM_UNDER_TEST: ΔF508 CFTR (Homo sapiens, UniProt P13569, DEL508-508)
Construct: expressed in transfected cells
TEST_PROTOCOL: MQAE chloride transport assay in C127 cells expressing ΔF508 CFTR
Format: cell-based, murine
TEST_CONTEXT: C127, plateau level in activity at high compound concentration, as a percentage of the low temperature response; read-out: % of Maximal Response
Source text: C127 cells are a murine mammary epithelial cell line obtained from ATCC (#CRL 1616, American Type Culture Collection, Manassas, Va.). […] The following day, cells were washed with chloride-containing buffer to remove extracellular MQAE and to quench intracellular MQAE fluorescence. […] The increase in MQAE fluorescence as a function of time was followed using 360 nm excitation and 460 nm emission wavelengths. […]
MEASURED_ENDPOINT: Emax (%)

>>> measured("CCCCCCN(C(C)=O)c1ccc(NC(=O)C2Cc3ccccc3CN2C(=O)c2cccc(Oc3ccccc3)c2)cc1 (racemic)")
66
>>> measured("COc1ccc(C(=O)N2Cc3ccccc3CC2C(=O)Nc2ccc(Cl)cc2)cc1Oc1ccccc1 (racemic)")
65
>>> measured("CCCCN(C(C)=O)c1ccc(NC(=O)C2Cc3ccccc3CN2C(=O)c2cccc(Oc3ccccc3)c2)cc1 (racemic)")
70
>>> measured("O=C(Nc1ccc(F)cc1)[C@@H]1Cc2ccccc2CN1C(=O)c1cc(OC2CCCCC2)ccn1")
87
>>> measured("Cc1ccc(Oc2cccc(C(=O)N3Cc4ccccc4CC3C(=O)Nc3ccc(Cl)cc3)c2)cc1 (racemic)")
77
>>> measured("CCc1ccc(NC(=O)C2Cc3ccccc3CN2C(=O)c2cccc(Oc3ccccc3)c2)cc1 (racemic)")
73
>>> measured("CCOc1cccc(NC(=O)[C@@H]2Cc3ccccc3CN2C(=O)c2cc(OC3CCCCC3)ccn2)c1")
73

----------
SYSTEM_UNDER_TEST: ΔF508 CFTR (Homo sapiens, UniProt P13569, DEL508-508)
Construct: expressed in transfected cells
TEST_PROTOCOL: MQAE chloride transport assay in C127 cells expressing ΔF508 CFTR
Type: cell-based, murine
TEST_CONTEXT: C127, plateau level in activity at high compound concentration, as a percentage of the low temperature response; read-out: % of Maximal Response
MEASURED_ENDPOINT: Emax (%)

>>> measured("COc1ccc(NC(=O)C2Cc3ccccc3CN2C(=O)c2cccc(Oc3ccccc3)c2)cn1 (racemic) [Compound 99]")
70
>>> measured("CCOc1cccc(NC(=O)C2Cc3ccccc3CN2C(=O)c2cccc(Oc3ccccc3)c2)c1 (racemic) [Compound 83]")
79
>>> measured("CCCCCc1ccc(NC(=O)[C@@H]2Cc3ccccc3CN2C(=O)c2cccc(Oc3ccccc3)c2)cn1 [Compound 107]")
54
>>> measured("COc1ccc(C(=O)N2Cc3ccccc3CC2C(=O)Nc2ccc(Cl)nc2)cc1Oc1ccccc1 (racemic) [Compound 108]")
60
>>> measured("CC(C)(C)c1ccc(Oc2cccc(C(=O)N3Cc4ccccc4CC3C(=O)Nc3ccc(Cl)cc3)c2)cc1 (racemic) [Compound 8]")
95
>>> measured("CCCCCc1ccc(NC(=O)[C@@H]2Cc3ccccc3CN2C(=O)c2cccc(CN3CCOCC3)c2)cc1 [Compound 123]")
63
>>> measured("CCCCN(C(C)=O)c1ccc(NC(=O)[C@@H]2Cc3ccccc3CN2C(=O)c2cccc(Oc3ccccc3)c2)cc1 [Compound 103]")
76

----------
SYSTEM_UNDER_TEST: ΔF508 CFTR (Homo sapiens, UniProt P13569, DEL508-508)
TEST_PROTOCOL: MQAE chloride transport assay in C127 cells expressing ΔF508 CFTR
TEST_CONTEXT: chloride transport activity, C127 ΔF508 CFTR cells, MQAE
pEC50: −log10 of the molar value.
MEASURED_ENDPOINT: pEC50

Recorded results for 2 molecules are shown here.
>>> measured("CCc1ccc(NC(=O)C2Cc3ccccc3CN2C(=O)c2cccc(Oc3ccccc3)c2)cc1 (racemic)")
6.64
>>> measured("CCCC(=O)N(C)c1ccc(NC(=O)C2Cc3ccccc3CN2C(=O)c2cccc(Oc3ccccc3)c2)cc1 (racemic)")
6.82

(I) CCCCCCN(C(C)=O)c1ccc(NC(=O)[C@@H]2Cc3ccccc3CN2C(=O)c2cccc(Oc3ccccc3)c2)cc1
(II) CCCCCc1ccc(NC(=O)[C@@H]2Cc3ccccc3CN2C(=O)c2cc(OCCN3CCOCC3)cc(OC(C)C)c2)cc1
Task item: Which has the higher pEC50, I or II ? In your reply, give the label of the chosen option.
Reply: I
(I: 7.54, II: 6.74)
